Here the recorded Basal_Viability ATP HCT116 IC50/EC50 is given for each entry.
# Test system: HCT116
# Test Details: cells
# Type: cell-based
# Reported Conditions: assay number 25; basal
Write the answer as a number in µM, unit excluded.

O=C1c2c(O)ccc(O)c2C(=O)c2c(NCCNCCO)ccc(NCCNCCO)c21 :: 1.2335

Form field: reported Basal_Viability ATP HCT116 IC50/EC50 of COc1cc(NCc2ccc3nc(N)nc(N)c3c2C)cc(OC)c1OC
0.02309

Next entry: O=[N+]([O-])c1ccc(Oc2ccc(N=C=S)cc2)cc1
2.772

Next entry: C[C@@H]1CN(CCCn2c3ccccc3c3ccccc32)C[C@H](C)N1
10.5492

Where these numbers come from: paper PMC4503722
